Molecular target: TLR2 (Homo sapiens, UniProt O60603)
Sequence (O60603 21-784): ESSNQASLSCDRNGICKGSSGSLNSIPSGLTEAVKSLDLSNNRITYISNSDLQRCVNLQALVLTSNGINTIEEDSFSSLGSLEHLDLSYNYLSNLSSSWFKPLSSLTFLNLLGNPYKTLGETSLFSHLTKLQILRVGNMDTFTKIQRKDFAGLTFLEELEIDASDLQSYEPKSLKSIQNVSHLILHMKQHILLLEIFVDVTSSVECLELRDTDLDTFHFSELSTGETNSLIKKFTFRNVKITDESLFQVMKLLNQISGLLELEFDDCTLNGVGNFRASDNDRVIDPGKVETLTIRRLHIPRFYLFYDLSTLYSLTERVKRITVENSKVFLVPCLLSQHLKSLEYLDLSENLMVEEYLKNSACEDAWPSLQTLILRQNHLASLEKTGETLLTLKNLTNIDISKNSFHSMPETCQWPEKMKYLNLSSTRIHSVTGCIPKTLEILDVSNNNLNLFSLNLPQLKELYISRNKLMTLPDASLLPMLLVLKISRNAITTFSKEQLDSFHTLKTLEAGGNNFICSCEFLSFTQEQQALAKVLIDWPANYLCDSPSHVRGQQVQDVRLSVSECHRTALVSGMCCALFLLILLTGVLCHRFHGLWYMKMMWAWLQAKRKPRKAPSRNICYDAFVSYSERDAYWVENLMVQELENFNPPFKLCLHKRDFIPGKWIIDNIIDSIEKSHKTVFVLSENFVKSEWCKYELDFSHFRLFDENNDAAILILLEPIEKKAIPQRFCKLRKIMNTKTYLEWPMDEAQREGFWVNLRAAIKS
Test: TLR2 agonist screening assay, HEK-Blue TLR2 reporter cell line (NF-kB-driven SEAP, absorbance at 600 nm)
Type: cell-based
Design: host or cells: HEK-293 (HEK-Blue TLR2 reporter cell line)
Conditions: HEK-Blue TLR2 reporter cells, agonist mode; average of all runs (Table 3)
pEC50: −log10 of the molar value.
Parameter: pEC50

Past entries and their recorded results:
Compound	Result
CCCCCCCCCCCCCCC(=O)N[C@H]1CCN(C(=O)c2ccc(C(=O)N3C[C@@H](C(=O)N[C@H]4C[C@@H]4c4ccccc4)[C@H](C(=O)N[C@H]4C[C@@H]4c4ccccc4)C3)cc2)C1	6.46 to 7.29
CCCCCCNC(=O)[C@H]1CN(C(=O)c2ccc(C(=O)N3C[C@@H](C(=O)N[C@H]4C[C@@H]4c4ccccc4)[C@H](C(=O)N[C@H]4C[C@@H]4c4ccccc4)C3)cc2)C[C@@H]1C(=O)NCCCCCC	6.46 to 7.29

**Query** Please report the measured pEC50 for CCCCCCNC(=O)C1CN(C(=O)c2ccc(C(=O)N3C[C@@H](C(=O)N[C@H]4C[C@@H]4c4ccccc4)[C@H](C(=O)N[C@H]4C[C@@H]4c4ccccc4)C3)cc2)CCN1C(=O)CCCCCC (mixture of isomers)
**Result** 7.30 to 10.00
